// provenance: patent US20110118447A1

Assayed target: binding partner (antigen) of C5A (XPA23)
Experiment: Biacore, K-off, fold vs original
Observation type: fold difference in affinity vs original (fold)
Answer with a number only, understood to be in fold.

Any idea what its fold difference in affinity vs original is? The binder is C5A (XPA23) VH Y107V (antibody, V domains shown) VH: EVQLLESGGGLVQPGGSLRLSCAASGFTFSKYFMFWVRQAPGKGLEWVSVISPSGGMTRYADSVKGRFTISRDNSKNTLYLQMNSLRAEDTAVYYCARVGYGGNSDVWGQGTLVTVSS VL: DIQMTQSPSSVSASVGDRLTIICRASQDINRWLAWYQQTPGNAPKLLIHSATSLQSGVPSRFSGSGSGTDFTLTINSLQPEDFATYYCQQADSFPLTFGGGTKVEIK
0.93

Any idea what its fold difference in affinity vs original is? The binder is C5A (XPA23) VH F35V (antibody, V domains shown) VH: EVQLLESGGGLVQPGGSLRLSCAASGFTFSKYFMVWVRQAPGKGLEWVSVISPSGGMTRYADSVKGRFTISRDNSKNTLYLQMNSLRAEDTAVYYCARVGYGGNSDYWGQGTLVTVSS VL: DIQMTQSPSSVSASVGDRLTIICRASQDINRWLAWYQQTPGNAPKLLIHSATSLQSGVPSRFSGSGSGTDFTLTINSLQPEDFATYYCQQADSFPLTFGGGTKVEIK
0.89

Any idea what its fold difference in affinity vs original is? The binder is C5A (XPA23) VH M57I (antibody, V domains shown) VH: EVQLLESGGGLVQPGGSLRLSCAASGFTFSKYFMFWVRQAPGKGLEWVSVISPSGGITRYADSVKGRFTISRDNSKNTLYLQMNSLRAEDTAVYYCARVGYGGNSDYWGQGTLVTVSS VL: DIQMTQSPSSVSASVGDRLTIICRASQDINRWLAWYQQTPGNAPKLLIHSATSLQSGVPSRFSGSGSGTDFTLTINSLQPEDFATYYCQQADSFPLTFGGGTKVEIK
0.03
